Reference for the values: ChEMBL document CHEMBL4417631

Recorded half-life at 20 µM for the following compounds
- Assay text: Half life in simulated gastric fluid at 20 uM by LC-MS/MS analysis
- Assay type: ADME
*1 amine or outer side, *2 acyl side, *3 side chain or, on linkers, in order; H or OH if unused. Where a SMILES comes first, the peptide text is derived from it. Bridges are numbered along the chain shown (N, C = ends). [ ]: non-standard residue; d: D form. Abu(4-yl) = O=C([C@H](CC[*:3])N[*:1])[*:2]; 2Nal = N[C@@H](Cc1ccc2ccccc2c1)C(=O)O; AEF = NCCOc1ccc(C[C@H](N)C(=O)O)cc1; αMeK = C[C@](N)(CCCCN)C(=O)O

# Compound, Recorded value
measured = [
    ("COc1ccc(C[C@H](NC(=O)[C@@H]2CSCC[C@H](NC(C)=O)C(=O)N[C@@H](CCC(N)=O)C(=O)N[C@@H]([C@@H](C)O)C(=O)N[C@@H](Cc3c[nH]c4ccccc34)C(=O)N[C@@H](CCC(N)=O)C(=O)N2)C(=O)N[C@@H](Cc2c[nH]c3ccccc23)C(=O)N[C@@](C)(CCCCN)C(=O)N[C@@H](CCC(=O)O)C(=O)N[C@@H](CC(N)=O)C(=O)NCC(N)=O)cc1", "< 1 h"),
    ("CC(=O)N[C@H]1CCSC[C@@H](C(=O)N[C@@H](Cc2ccc(OCCN)cc2)C(=O)N[C@@H](Cc2c[nH]c3ccccc23)C(=O)N[C@@](C)(CCCCN)C(=O)N[C@@H](CCC(=O)O)C(=O)N[C@@H](CC(N)=O)C(=O)NCC(N)=O)NC(=O)[C@H](CCC(N)=O)NC(=O)[C@H](Cc2c[nH]c3ccccc23)NC(=O)[C@H]([C@@H](C)O)NC(=O)[C@H](CCC(N)=O)NC1=O", "2 to 24 h"),
    ("CC(=O)NCCCC[C@H](NC(=O)[C@@](C)(NC(=O)[C@H](Cc1ccc2ccccc2c1)NC(=O)[C@H](Cc1ccc(C(N)=O)cc1)NC(=O)[C@@H](NC(=O)[C@H](CCC(N)=O)NC(=O)[C@H](Cc1c[nH]c2ccccc12)NC(=O)[C@@H](NC(=O)[C@H](CCC(N)=O)NC(=O)[C@@H](NC(C)=O)C(C)(C)S)[C@@H](C)O)C(C)(C)S)C(C)C)C(=O)N[C@@H](CC(N)=O)C(=O)N[C@@H](CC(N)=O)C(N)=O", "3 to 6 h"),
]

Exam item: Requested field: half-life at 20 µM. Item: CC(=O)N[C@H]1CCSC[C@@H](C(=O)N[C@@H](Cc2ccc(OCCN)cc2)C(=O)N[C@@H](Cc2ccc3ccccc3c2)C(=O)N[C@@](C)(CCCCN)C(=O)N[C@@H](CC(N)=O)C(=O)N[C@@H](CC(N)=O)C(=O)NCC(N)=O)NC(=O)[C@H](CCC(N)=O)NC(=O)[C@H](Cc2c[nH]c3ccccc23)NC(=O)[C@H]([C@@H](C)O)NC(=O)[C@H](CCC(N)=O)NC1=O (Ac-[Abu(4-yl)]QTWQC[AEF][2Nal][αMeK]NNG-NH2; thioether 1-6)
Marked response: 3 to 6 h

Exam item: Requested field: half-life at 20 µM. Item: CC(=O)NCCCC[C@H](NC(=O)C(C)(C)NC(=O)[C@H](Cc1ccc2ccccc2c1)NC(=O)[C@H](Cc1ccc(OCCN)cc1)NC(=O)[C@@H](NC(=O)[C@H](CCC(N)=O)NC(=O)[C@H](Cc1c[nH]c2ccccc12)NC(=O)[C@@H](NC(=O)[C@H](CC(N)=O)NC(=O)[C@@H](NC(=O)[C@@H](Cc1ccccc1)NC(C)=O)C(C)(C)S)[C@@H](C)O)C(C)(C)S)C(=O)N[C@@H](CC(N)=O)C(=O)NCCC(N)=O
Marked response: 3 to 6 h
